Test system: Trichophyton mentagrophytes var. gypseum 1773
ASSAY OVERVIEW: Fungicidal activity, serial dilution technique
Format: cell-based
SETTINGS: Trichophyton mentagrophytes, Tm; average of three ± SD; - means non-active; read-out: Minimum Inhibitory Concentration (MIC), Tm
Listed below: MIC values for each entry.

COMPOUND | MIC / µg/mL
CCCCCCCCCCCCCCCC[P+](C(C)(C)C)(C(C)(C)C)C(C)(C)C [Compound 16b] | 62.5
CCCCCCCCCC[P+](C(C)(C)C)(C(C)(C)C)C(C)(C)C [Compound 10a] | 125
CCCCCCCCCCCCCCCCC[P+](C(C)(C)C)(C(C)(C)C)C(C)(C)C [Compound 17a] | 125
CCCCCCCCCCCCCCCCCC[P+](C(C)(C)C)(C(C)(C)C)C(C)(C)C [Compound 18a] | 125
CCCCCCCCCCCCCCC[P+](C(C)(C)C)(C(C)(C)C)C(C)(C)C [Compound 15a] | 62.5
CCCCCCCCCCCCC[P+](C(C)(C)C)(C(C)(C)C)C(C)(C)C [Compound 13a, tri-tert-butyl(n-tridecyl)phosphonium] | 125

* * *

System: methicillin-resistant S. aureus MRSA-1
ASSAY OVERVIEW: Antimicrobial activity, serial dilution technique in Mueller–Hinton Broth 2
Type: cell-based, Staphylococcus aureus
SETTINGS: MRSA-1 (resistant to fluoroquinolones and beta-lactams); - means non-active
OBSERVATION TYPE: Minimum Inhibitory Concentration (MIC), MRSA-1 (µg/mL)

COMPOUND | UNIT STRING | RESULT
CCCCCCCCCCCCCCCCC[P+](C(C)(C)C)(C(C)(C)C)C(C)(C)C [Compound 17a] | µg/mL | 0.9
CCCCCCCCCCCCCCCCC[P+](C(C)(C)C)(C(C)(C)C)C(C)(C)C [Compound 17b] | µg/mL | 1.9
CCCCCCCCCCC[P+](C(C)(C)C)(C(C)(C)C)C(C)(C)C [Compound 11a] | µg/mL | 1.9
CCCCCCCC[P+](C(C)(C)C)(C(C)(C)C)C(C)(C)C [Compound 8b] | µg/mL | 31.3
CCCCCCCCCCCCCCCCCC[P+](C(C)(C)C)(C(C)(C)C)C(C)(C)C [Compound 18b] | µg/mL | 7.8
CCCCCCCCCCCC[P+](C(C)(C)C)(C(C)(C)C)C(C)(C)C [Compound 12a, tri-tert-butyl(n-dodecyl)phosphonium] | µg/mL | 0.5

* * *

Test system: Candida albicans ATCC 10231
ASSAY OVERVIEW: Fungicidal activity, serial dilution technique
Format: cell-based
SETTINGS: Candida albicans, ATCC10231, Ca; average of three ± SD; - means non-active; read-out: Minimum Bactericidal and Fungicidal Concentration (MBC, MFC), Ca

COMPOUND | TARGET OR TEST SYSTEM | UNIT STRING | MBC
CCCCCCCCCCCCCC[P+](C(C)(C)C)(C(C)(C)C)C(C)(C)C [Compound 14a] | Candida albicans ATCC 10231 | µg/mL | 15.6
CCCCCCCCCCCCCCCCC[P+](C(C)(C)C)(C(C)(C)C)C(C)(C)C [Compound 17a] | Candida albicans ATCC 10231 | µg/mL | 3.9
CCCCCCCCCCCCCCCC[P+](C(C)(C)C)(C(C)(C)C)C(C)(C)C [Compound 16a] | Candida albicans ATCC 10231 | µg/mL | 3.9
CCCCCCCCCCC[P+](C(C)(C)C)(C(C)(C)C)C(C)(C)C [Compound 11a] | Candida albicans ATCC 10231 | µg/mL | 62.5
CCCCCCCCCC[P+](C(C)(C)C)(C(C)(C)C)C(C)(C)C [Compound 10a] | Candida albicans ATCC 10231 | µg/mL | 31.3
CCCCCCCCCCCCCCCCCCCC[P+](C(C)(C)C)(C(C)(C)C)C(C)(C)C [Compound 20a] | Candida albicans ATCC 10231 | µg/mL | 62.5
CC(=O)N1CCN(c2ccc(OCC3COC(Cn4ccnc4)(c4ccc(Cl)cc4Cl)O3)cc2)CC1 (stereo not shown) [Ketoconazole, reference compound] | Candida albicans ATCC 10231 | µg/mL | 3.9

* * *

Tested on: Enterococcus faecalis ATCC 2921
ASSAY OVERVIEW: Antimicrobial activity, serial dilution technique in Mueller–Hinton Broth 2
Type: cell-based
SETTINGS: Ef; average of three ± SD; - means non-active
OBSERVATION TYPE: Minimum Inhibitory Concentration (MIC), Ef (µg/mL)

COMPOUND | RESULT
CCCCCCCCCC[P+](C(C)(C)C)(C(C)(C)C)C(C)(C)C [Compound 10b] | 15.6
CCCCCCCCCCCCCCCCC[P+](C(C)(C)C)(C(C)(C)C)C(C)(C)C [Compound 17b] | 0.5
CCCCCCCCCCCC[P+](C(C)(C)C)(C(C)(C)C)C(C)(C)C [Compound 12b] | 1.9
CCCCCCCCCCCCCCCC[P+](C(C)(C)C)(C(C)(C)C)C(C)(C)C [Compound 16b] | 0.5

* * *

Test system: methicillin-resistant S. aureus MRSA-1
ASSAY OVERVIEW: Antimicrobial activity, serial dilution technique in Mueller–Hinton Broth 2
Type: cell-based, Staphylococcus aureus
SETTINGS: MRSA-1 (resistant to fluoroquinolones and beta-lactams); - means non-active
OBSERVATION TYPE: Minimum Inhibitory Concentration (MIC), MRSA-1 (µg/mL)

MOLECULE | RESULT
CCCCCCCCCCC[P+](C(C)(C)C)(C(C)(C)C)C(C)(C)C [Compound 11b] | 0.3
CCCCCCCCCC[P+](C(C)(C)C)(C(C)(C)C)C(C)(C)C [Compound 10b] | 1.9
CCCCCCCCCCCC[P+](C(C)(C)C)(C(C)(C)C)C(C)(C)C [Compound 12b] | 1.9
CCCCCCCCCCCCCCC[P+](C(C)(C)C)(C(C)(C)C)C(C)(C)C [Compound 15b] | 0.3
CCCCCCCCCCCCC[P+](C(C)(C)C)(C(C)(C)C)C(C)(C)C [Compound 13b] | 0.3
CCCCCCCCCCCCCCCC[P+](C(C)(C)C)(C(C)(C)C)C(C)(C)C [Compound 16b] | 1.9
CCCCCCCCCCCCCCCCCC[P+](C(C)(C)C)(C(C)(C)C)C(C)(C)C [Compound 18a] | 0.9
CCCCCCCCCCCCCCCCCCCC[P+](C(C)(C)C)(C(C)(C)C)C(C)(C)C [Compound 20b] | 15.6
CCCCCCCCCCCCCC[P+](C(C)(C)C)(C(C)(C)C)C(C)(C)C [Compound 14b] | 0.3

* * *

Tested on: Enterococcus faecalis ATCC 2921
ASSAY OVERVIEW: Antimicrobial activity, serial dilution technique in Mueller–Hinton Broth 2
Assay type: cell-based
SETTINGS: Ef; average of three ± SD; - means non-active
Measured Minimum Bactericidal and Fungicidal Concentration (MBC, MFC), Ef accompanies every entry in the list below.
OBSERVATION TYPE: Minimum Bactericidal and Fungicidal Concentration (MBC, MFC), Ef (µg/mL)

MOLECULE | TARGET OR TEST SYSTEM | RESULT
CCCCCCCCC[P+](C(C)(C)C)(C(C)(C)C)C(C)(C)C | Enterococcus faecalis ATCC 2921 | 125
CCCCCCCCCCCC[P+](C(C)(C)C)(C(C)(C)C)C(C)(C)C [Compound 12a, tri-tert-butyl(n-dodecyl)phosphonium] | Enterococcus faecalis ATCC 2921 | 1.9
CCCCCCCCCCCCCCCCC[P+](C(C)(C)C)(C(C)(C)C)C(C)(C)C [Compound 17a] | Enterococcus faecalis ATCC 2921 | 1.9
CCCCCCCCCCCCCC[P+](C(C)(C)C)(C(C)(C)C)C(C)(C)C [Compound 14b] | Enterococcus faecalis ATCC 2921 | 1.9
CCCCCCCCCCCC[P+](C(C)(C)C)(C(C)(C)C)C(C)(C)C [Compound 12b] | Enterococcus faecalis ATCC 2921 | 15.6
CCCCCCCCCCCCCC[P+](C(C)(C)C)(C(C)(C)C)C(C)(C)C [Compound 14a] | Enterococcus faecalis ATCC 2921 | 3.9
CCCCCCCCCC[P+](C(C)(C)C)(C(C)(C)C)C(C)(C)C [Compound 10b] | Enterococcus faecalis ATCC 2921 | 15.6
CCCCCCCCCCCCCCCCCC[P+](C(C)(C)C)(C(C)(C)C)C(C)(C)C [Compound 18a] | Enterococcus faecalis ATCC 2921 | 0.9
CCCCCCCCCCCCCCCC[P+](C(C)(C)C)(C(C)(C)C)C(C)(C)C [Compound 16b] | Enterococcus faecalis ATCC 2921 | 0.5
CCCCCCCCCCCCCCCCCC[P+](C(C)(C)C)(C(C)(C)C)C(C)(C)C [Compound 18b] | Enterococcus faecalis ATCC 2921 | 3.9
CCCCCCCCCCCCCCC[P+](C(C)(C)C)(C(C)(C)C)C(C)(C)C [Compound 15b] | Enterococcus faecalis ATCC 2921 | 3.9

Where do the numbers come from? From paper PMC8744835.
